Test system: CN0375-F725-PDC KRAS spheroid viability
METHOD_SUMMARY: Anticancer human tumor CN0375-F725-PDC patient-derived colon carcinoma cell line growth inhibition [KRAS2]
CONDITION_NOTES: second compound 0.316 µM; first compound 0.000316 µM; active compounds read low; spheroids with HUVEC and MSC
MEASUREMENT_NAME: viability, T/C (%)
Response body: numeric value in %, unit text excluded.

{"MOLECULE": "Cn1ncnc1[C@H]1c2n[nH]c(=O)c3cc(F)cc(c23)N[C@@H]1c1ccc(F)cc1 + C=CC(=O)N1CCN(c2nc(=O)n(-c3c(C)ccnc3C(C)C)c3nc(-c4c(O)cccc4F)c(F)cc23)C(C)C1", "UNIT_OF_MEASURE": "%", "viability, T/C": 107}

Lab note: CC(=O)Nc1cccc(-n2c(=O)n(C3CC3)c(=O)c3c(Nc4ccc(I)cc4F)n(C)c(=O)c(C)c32)c1 + CNCc1ccccc1-c1csc(C(C)Nc2nc(C)nc3cc(OC)c(OC)cc23)c1 gave viability, T/C of 70.9

Lab note: CC(=O)Nc1cccc(-n2c(=O)n(C3CC3)c(=O)c3c(Nc4ccc(I)cc4F)n(C)c(=O)c(C)c32)c1 + C=CC(=O)N1CCN(c2nc(OCC3CCCN3C)nc3c2CCN(c2cccc4cccc(C)c24)C3)CC1CC#N gave viability, T/C of 77.7

Lab note: Cn1ncnc1[C@H]1c2n[nH]c(=O)c3cc(F)cc(c23)N[C@@H]1c1ccc(F)cc1 + CNCc1ccccc1-c1csc(C(C)Nc2nc(C)nc3cc(OC)c(OC)cc23)c1 gave viability, T/C of 100

Lab note: CN(C)C/C=C/C(=O)Nc1cc2c(Nc3ccc(F)c(Cl)c3)ncnc2cc1O[C@H]1CCOC1 + C=CC(=O)N1CCN(c2nc(=O)n(-c3c(C)ccnc3C(C)C)c3nc(-c4c(O)cccc4F)c(F)cc23)C(C)C1 gave viability, T/C of 111

====

Test system: CN0375-F725-PDC KRAS spheroid viability
METHOD_SUMMARY: Anticancer human tumor CN0375-F725-PDC cell line growth inhibition [KRAS2];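 also: spheroids exposed to agents for 7 days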
CONDITION_NOTES: second compound 0.316 µM; first compound 0.316 µM; active compounds read low; spheroids with HUVEC and MSC
# Lookup of reported viability, T/C keyed by entry
Response body: numeric value in %, unit text excluded.

{"COMPOUND": "Cn1nccc1Nc1nccc(-c2cc3c(s2)C(C)(C)N(CCN2CCOCC2)C3=O)n1 + C=CC(=O)N1CCN(c2nc(=O)n(-c3c(C)ccnc3C(C)C)c3nc(-c4c(O)cccc4F)c(F)cc23)C(C)C1", "TEST_TARGET": "CN0375-F725-PDC KRAS spheroid viability", "UNIT_OF_MEASURE": "%", "viability, T/C": 64.3}
{"COMPOUND": "CC1COCCN1c1cc(-c2ccnn2C)c2ccnc(-c3ccn[nH]3)c2n1 (stereo not given) + CNCc1ccccc1-c1csc(C(C)Nc2nc(C)nc3cc(OC)c(OC)cc23)c1", "TEST_TARGET": "CN0375-F725-PDC KRAS spheroid viability", "UNIT_OF_MEASURE": "%", "viability, T/C": 70}
{"COMPOUND": "CC(=O)OC12COC1CC(O)C1(C)C(=O)C(O)C3=C(C)C(OC(=O)C(O)C(NC(=O)OC(C)(C)C)c4ccccc4)CC(O)(C(OC(=O)c4ccccc4)C21)C3(C)C (stereo not given) + CNCc1ccccc1-c1csc(C(C)Nc2nc(C)nc3cc(OC)c(OC)cc23)c1", "TEST_TARGET": "CN0375-F725-PDC KRAS spheroid viability", "UNIT_OF_MEASURE": "%", "viability, T/C": 74.7}
{"COMPOUND": "CC(=O)OC12COC1CC(O)C1(C)C(=O)C(O)C3=C(C)C(OC(=O)C(O)C(NC(=O)OC(C)(C)C)c4ccccc4)CC(O)(C(OC(=O)c4ccccc4)C21)C3(C)C (stereo not given) + COc1cc2nc(C)nc(NC(C)c3cc(N)cc(C(F)(F)F)c3)c2cc1OC1CCOC1", "TEST_TARGET": "CN0375-F725-PDC KRAS spheroid viability", "UNIT_OF_MEASURE": "%", "viability, T/C": 80}

Lab note: O=C(c1cc(Cc2n[nH]c(=O)c3ccccc23)ccc1F)N1CCN(C(=O)C2CC2)CC1 + C=CC(=O)N1CCN(c2nc(=O)n(-c3c(C)ccnc3C(C)C)c3nc(-c4c(O)cccc4F)c(F)cc23)C(C)C1 gave viability, T/C of 102

Lab note: O=C(c1cc(Cc2n[nH]c(=O)c3ccccc23)ccc1F)N1CCN(C(=O)C2CC2)CC1 + CC1OCC2(CCN(c3cnc(Sc4ccnc(N)c4Cl)c(N)n3)CC2)C1N gave viability, T/C of 90.3

Lab note: CC1COCCN1c1cc(-c2ccnn2C)c2ccnc(-c3ccn[nH]3)c2n1 (stereo not given) + C=CC(=O)N1CCN(c2nc(=O)n(-c3c(C)ccnc3C(C)C)c3nc(-c4c(O)cccc4F)c(F)cc23)C(C)C1 gave viability, T/C of 78.2

Lab note: CC1COCCN1c1cc(-c2ccnn2C)c2ccnc(-c3ccn[nH]3)c2n1 (stereo not given) + C=CC(=O)N1CCN(c2nc(OCC3CCCN3C)nc3c2CCN(c2cccc4cccc(C)c24)C3)CC1CC#N gave viability, T/C of 78.5

Lab note: Cn1nccc1Nc1nccc(-c2cc3c(s2)C(C)(C)N(CCN2CCOCC2)C3=O)n1 + CC1OCC2(CCN(c3cnc(Sc4ccnc(N)c4Cl)c(N)n3)CC2)C1N gave viability, T/C of 60.4

Lab note: COc1cc(Nc2ncc3c(n2)-c2ccc(Cl)cc2C(c2c(F)cccc2OC)=NC3)ccc1C(=O)O + CC1OCC2(CCN(c3cnc(Sc4ccnc(N)c4Cl)c(N)n3)CC2)C1N gave viability, T/C of 85.6

====

Test system: CN0375-F725-PDC KRAS spheroid viability
METHOD_SUMMARY: Anticancer human tumor CN0375-F725-PDC cell line growth inhibition [KRAS2];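 also: spheroids exposed to agents for 7 days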
CONDITION_NOTES: second compound 1 µM; first compound 0.316 µM; active compounds read low; spheroids with HUVEC and MSC
Okay, here is how we bin by viability, T/C: low class (below 60%), middle class (60% to below 90%), high class (90% or more)

Worked set:
{"COMPOUND": "CCN1CCN(Cc2ccc(Nc3ncc(F)c(-c4cc(F)c5nc(C)n(C(C)C)c5c4)n3)nc2)CC1 + COc1cc2nc(C)nc(NC(C)c3cc(N)cc(C(F)(F)F)c3)c2cc1OC1CCOC1", "CAT": "middle class"}
{"COMPOUND": "CC1(C)CCC(CN2CCN(c3ccc(C(=O)NS(=O)(=O)c4ccc(NCC5CCOCC5)c([N+](=O)[O-])c4)c(Oc4cnc5[nH]ccc5c4)c3)CC2)=C(c2ccc(Cl)cc2)C1 + CNCc1ccccc1-c1csc(C(C)Nc2nc(C)nc3cc(OC)c(OC)cc23)c1", "CAT": "low class"}
{"COMPOUND": "CC1OCC2(CCN(c3cnc(Sc4ccnc(N)c4Cl)c(N)n3)CC2)C1N (stereo not given) + CNCc1ccccc1-c1csc(C(C)Nc2nc(C)nc3cc(OC)c(OC)cc23)c1", "CAT": "low class"}

Task: Class (by measured viability, T/C) for CC1(C)CCC(CN2CCN(c3ccc(C(=O)NS(=O)(=O)c4ccc(NCC5CCOCC5)c([N+](=O)[O-])c4)c(Oc4cnc5[nH]ccc5c4)c3)CC2)=C(c2ccc(Cl)cc2)C1 + COc1cc2nc(C)nc(NC(C)c3cc(N)cc(C(F)(F)F)c3)c2cc1OC1CCOC1
Output: high class

Task: Class (by measured viability, T/C) for CCN1CCN(Cc2ccc(Nc3ncc(F)c(-c4cc(F)c5nc(C)n(C(C)C)c5c4)n3)nc2)CC1 + CNCc1ccccc1-c1csc(C(C)Nc2nc(C)nc3cc(OC)c(OC)cc23)c1
Output: low class

Task: Class (by measured viability, T/C) for CC1COCCN1c1cc(-c2ccnn2C)c2ccnc(-c3ccn[nH]3)c2n1 (stereo not given) + COc1cc2nc(C)nc(NC(C)c3cc(N)cc(C(F)(F)F)c3)c2cc1OC1CCOC1
Output: middle class

Task: Class (by measured viability, T/C) for CC(C)NCC(C(=O)N1CCN(c2ncnc3c2C(C)CC3O)CC1)c1ccc(Cl)cc1 (stereo not given) + C=CC(=O)N1CCN(c2nc(=O)n(-c3c(C)ccnc3C(C)C)c3nc(-c4c(O)cccc4F)c(F)cc23)C(C)C1
Output: high class

====

# Lookup of reported viability, T/C keyed by entry
Test system: CN0375-F725-PDC KRAS spheroid viability
METHOD_SUMMARY: Anticancer human tumor CN0375-F725-PDC cell line growth inhibition [KRAS2];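 also: spheroids exposed to agents for 7 days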
CONDITION_NOTES: second compound 3.16 µM; first compound 0.0316 µM; active compounds read low; spheroids with HUVEC and MSC
Response body: numeric value in %, unit text excluded.

Some solved entries appear below for comparison.
{"COMPOUND": "CN(C)C/C=C/C(=O)Nc1cc2c(Nc3ccc(F)c(Cl)c3)ncnc2cc1O[C@H]1CCOC1 + COc1cc2nc(C)nc(NC(C)c3cc(N)cc(C(F)(F)F)c3)c2cc1OC1CCOC1", "TEST_TARGET": "CN0375-F725-PDC KRAS spheroid viability", "viability, T/C [%]": 66.5}
{"COMPOUND": "CC1OCC2(CCN(c3cnc(Sc4ccnc(N)c4Cl)c(N)n3)CC2)C1N (stereo unspecified) + C=CC(=O)N1CCN(c2nc(OCC3CCCN3C)nc3c2CCN(c2cccc4cccc(C)c24)C3)CC1CC#N", "TEST_TARGET": "CN0375-F725-PDC KRAS spheroid viability", "viability, T/C [%]": 30.2}

Reported CN0375-F725-PDC KRAS spheroid viability viability, T/C for item O=C(c1cc(Cc2n[nH]c(=O)c3ccccc23)ccc1F)N1CCN(C(=O)C2CC2)CC1 + CNCc1ccccc1-c1csc(C(C)Nc2nc(C)nc3cc(OC)c(OC)cc23)c1 was 0.68

Reported CN0375-F725-PDC KRAS spheroid viability viability, T/C for item CC(C)n1nc(-c2ccc3oc(N)nc3c2)c2c(N)ncnc21 + C=CC(=O)N1CCN(c2nc(OCC3CCCN3C)nc3c2CCN(c2cccc4cccc(C)c24)C3)CC1CC#N was 11.5

Reported CN0375-F725-PDC KRAS spheroid viability viability, T/C for item COc1cc2nccc(Oc3ccc(NC(=O)C4(C(=O)Nc5ccc(F)cc5)CC4)cc3)c2cc1OC + CC1OCC2(CCN(c3cnc(Sc4ccnc(N)c4Cl)c(N)n3)CC2)C1N was 84.4

Reported CN0375-F725-PDC KRAS spheroid viability viability, T/C for item COc1cc(Nc2ncc3c(n2)-c2ccc(Cl)cc2C(c2c(F)cccc2OC)=NC3)ccc1C(=O)O + CC1OCC2(CCN(c3cnc(Sc4ccnc(N)c4Cl)c(N)n3)CC2)C1N was 81
